Each recorded value in this set is attributed to ChEMBL document CHEMBL5356977.

Numbered stars: 1 amine (or outer) side, 2 acyl side, 3 side chain; on linkers, the order of the positions; unused ones are H or OH. Bridge positions count the residues as written; N and C are the ends. Square brackets hold non-standard residues; d marks the D form. Peptide text beside a SMILES is read from it. Bip = N[C@@H](Cc1ccc(-c2ccccc2)cc1)C(=O)O; X1 = CN([C@@H](CC(N)O)C(=O)[*:2])[*:1]; NMeF = CN[C@@H](Cc1ccccc1)C(=O)O; Sar = CNCC(=O)O
Quick note: these are Kd numbers for system: UniProt:Q01974
Sequence (Q01974 whole entry): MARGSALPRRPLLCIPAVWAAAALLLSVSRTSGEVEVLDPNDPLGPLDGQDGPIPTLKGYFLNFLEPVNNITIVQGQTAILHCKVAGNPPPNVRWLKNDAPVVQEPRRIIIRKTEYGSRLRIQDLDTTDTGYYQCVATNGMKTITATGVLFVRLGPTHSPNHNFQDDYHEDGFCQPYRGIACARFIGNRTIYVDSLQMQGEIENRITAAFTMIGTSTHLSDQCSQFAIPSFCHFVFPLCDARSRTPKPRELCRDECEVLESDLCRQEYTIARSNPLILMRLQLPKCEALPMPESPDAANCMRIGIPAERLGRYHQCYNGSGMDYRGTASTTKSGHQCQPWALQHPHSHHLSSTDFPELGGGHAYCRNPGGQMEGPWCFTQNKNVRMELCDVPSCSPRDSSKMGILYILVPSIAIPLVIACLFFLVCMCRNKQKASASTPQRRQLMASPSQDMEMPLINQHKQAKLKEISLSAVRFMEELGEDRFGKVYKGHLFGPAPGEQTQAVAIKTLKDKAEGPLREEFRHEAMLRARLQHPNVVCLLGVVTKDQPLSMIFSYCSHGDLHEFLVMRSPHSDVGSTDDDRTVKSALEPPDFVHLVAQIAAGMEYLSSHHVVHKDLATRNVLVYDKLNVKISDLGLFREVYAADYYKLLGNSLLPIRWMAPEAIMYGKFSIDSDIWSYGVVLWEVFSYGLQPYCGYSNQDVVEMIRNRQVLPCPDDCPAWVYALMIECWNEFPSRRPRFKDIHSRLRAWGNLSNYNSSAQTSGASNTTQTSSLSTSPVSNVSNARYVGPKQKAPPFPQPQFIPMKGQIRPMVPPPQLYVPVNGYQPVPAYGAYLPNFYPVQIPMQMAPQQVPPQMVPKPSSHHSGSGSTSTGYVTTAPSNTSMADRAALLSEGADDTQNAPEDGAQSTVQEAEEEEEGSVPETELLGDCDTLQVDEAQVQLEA
recorded-endpoint: Kd

molecule	result
CC(C)C[C@@H]1NC(=O)[C@H](CC(N)O)N(C)C(=O)[C@H](Cc2ccccc2)NC(=O)CNC(=O)[C@H](Cc2ccc(O)cc2)NC(=O)[C@H](Cc2ccccc2)NC(=O)CSC[C@@H](C(N)=O)NC(=O)[C@H](Cc2c[nH]c3ccccc23)NC(=O)[C@H](Cc2ccc(O)cc2)NC1=O (some centres undefined) ({CH2CO}-FYGF[X1]LYWC-NH2; thioether N-9)	> 11 nM
CC(C)C[C@@H]1NC(=O)[C@H](Cc2ccc(O)cc2)NC(=O)[C@H](Cc2ccccc2)NC(=O)CSC[C@@H](C(=O)NCC(=O)NCC(=O)NCC(=O)N[C@H](CCCCNC(=O)c2ccc3c(c2)C(=O)OC32c3ccc(O)cc3Oc3cc(O)ccc32)C(N)=O)NC(=O)[C@H](CC(C)C)NC(=O)[C@H](Cc2ccccc2)N(C)C(=O)[C@H](Cc2ccc(O)cc2)NC(=O)[C@H](Cc2c[nH]c3ccccc23)NC(=O)CNC(=O)[C@H](CO)NC(=O)[C@H](Cc2ccc(O)cc2)NC(=O)[C@H](C(C)C)NC1=O	> 100 nM
CN1CC(=O)N[C@@H](CO)C(=O)N[C@@H](Cc2ccc(-c3ccccc3)cc2)C(=O)NCC(=O)N[C@@H](CCCNC(=N)N)C(=O)N[C@@H](CCCNC(=N)N)C(=O)N[C@@H](CCCNC(=N)N)C(=O)NCC(=O)N[C@H](C(=O)NCC(N)=O)CSCC(=O)N[C@@H](Cc2ccccc2)C(=O)N[C@@H](Cc2ccc(O)cc2)C1=O ({CH2CO}-FY[Sar]S[Bip]GRRRGCG-NH2; thioether N-11)	> 100 nM
CC(C)C[C@@H]1NC(=O)[C@H](Cc2ccc(O)cc2)NC(=O)[C@H](Cc2ccccc2)NC(=O)CSC[C@@H](C(=O)NCC(N)=O)NC(=O)[C@H](CC(C)C)NC(=O)[C@H](Cc2ccccc2)N(C)C(=O)[C@H](Cc2ccc(O)cc2)NC(=O)[C@H](Cc2c[nH]c3ccccc23)NC(=O)CNC(=O)[C@H](CO)NC(=O)[C@H](Cc2ccc(O)cc2)NC(=O)[C@H](C(C)C)NC1=O ({CH2CO}-FYLVYSGWY[NMeF]LCG-NH2; thioether N-12)	43 nM
